In this section we review reported Rabbit Psoas EC25 (Y75 value) values for a set of compounds.
Test system: myosin ATPase, Rabbit Psoas myofibrils
run_description: Myofibril ATPase assay, rabbit psoas (skeletal) myofibrils
Type: biochemical
particulars: concentration required to reduce myosin ATP-ase activity by 25%; Rabbit Psoas Prep pCa 25 GEOM_MEAN

compound	result_unit	Rabbit Psoas EC25 (Y75 value)
C[C@H](NC(=O)Cn1c(=O)[nH]c2cncnc2c1=O)c1ccc(F)cc1F	µM	100
CC(C)C[C@H](C(=O)N[C@@H](C)c1ncc(F)cc1F)n1c(=O)[nH]c2ccccc2c1=O (single isomer, unassigned)	µM	39.563
C[C@H](NC(=O)C(c1ccccc1)n1c(=O)[nH]c2ccccc2c1=O)c1ccc(F)cc1F (single isomer, unassigned)	µM	100
C[C@@H](NC(=O)Cn1c(=O)[nH]c2ccccc2c1=O)c1ccc(F)cc1F	µM	100
C[C@H](NC(=O)[C@H](CC1CC1)n1c(=O)[nH]c2ccccc2c1=O)c1ncc(F)cc1F (single isomer, unassigned)	µM	100
CC(c1ccc(F)cc1F)N(C)C(=O)Cn1c(=O)[nH]c2ccccc2c1=O (stereo not drawn)	µM	1.26
COc1ccc(F)cc1C(C)NC(=O)Cn1c(=O)[nH]c2ccccc2c1=O (stereo not drawn)	µM	100
C[C@H](NC(=O)Cn1c(=O)[nH]c2ccc(F)cc2c1=O)c1ncc(C#N)cc1F (single isomer, unassigned)	µM	0.108
C[C@@H](NC(=O)Cn1c(=O)[nH]c2ccc(F)c(F)c2c1=O)c1ccc(C#N)nn1 (single isomer, unassigned)	µM	2.538
C[C@H](NC(=O)Cn1c(=O)[nH]c2ncncc2c1=O)c1ccc(F)cc1F	µM	100
CC(NC(=O)Cn1c(=O)[nH]c2ccccc2c1=O)c1ccncc1 (stereo not drawn)	µM	100
C[C@H](NC(=O)Cn1c(=O)[nH]c2ccccc2c1=O)c1cccc2ccccc12 (single isomer, unassigned)	µM	100
C[C@H](NC(=O)Cn1c(=O)[nH]c2cccc(O)c2c1=O)c1ccc(F)cc1F	µM	0.019
COc1cccc(C(C)NC(=O)Cn2c(=O)[nH]c3ccccc3c2=O)c1 (stereo not drawn)	µM	100
C[C@@H](NC(=O)Cn1c(=O)[nH]c2cccc(F)c2c1=O)c1ncc(C#N)cc1F (single isomer, unassigned)	µM	4.593

* * *

Test system: myosin ATPase, Porcine Atria myofibrils
run_description: Myofibril ATPase assay, porcine atria myofibrils
Format: biochemical
particulars: concentration required to reduce myosin ATP-ase activity by 25%; Porcine Atria Prep pCa 25 GEOM_MEAN

molecule	target_desc	result_unit	Porcine Atria EC25 (Y75 value)
C[C@H](NC(=O)C1(n2c(=O)[nH]c3cccc(C#N)c3c2=O)CC1)c1ncc(C#N)cc1F (single isomer, unassigned) [Compound 3015]	myosin ATPase, Porcine Atria myofibrils	µM	1.89
C[C@H](NC(=O)Cn1c(=O)[nH]c2ccccc2c1=O)c1ccc(O)nc1 (single isomer, unassigned) [Compound 98]	myosin ATPase, Porcine Atria myofibrils	µM	100
C[C@H](NC(=O)Cn1c(=O)[nH]c2ncncc2c1=O)c1ccc(F)cc1F [Compound 95]	myosin ATPase, Porcine Atria myofibrils	µM	100
O=C(Cn1c(=O)[nH]c2ccccc2c1=O)N[C@H]1CCc2cc(F)cc(F)c21 (single isomer, unassigned) [Compound 48]	myosin ATPase, Porcine Atria myofibrils	µM	0.4184
C[C@H](NC(=O)[C@H](CC1CC1)n1c(=O)[nH]c2ccccc2c1=O)c1ccc(F)cc1F (single isomer, unassigned) [Compound 501]	myosin ATPase, Porcine Atria myofibrils	µM	100
C[C@H](NC(=O)Cn1c(=O)c2cc(F)ccc2n(C)c1=O)c1ccc(F)cc1F [Compound 404]	myosin ATPase, Porcine Atria myofibrils	µM	12.2
CC(C)C[C@H](NC(=O)Cn1c(=O)[nH]c2ccccc2c1=O)c1ccc(F)cc1F (single isomer, unassigned) [Compound 70]	myosin ATPase, Porcine Atria myofibrils	µM	100
